Target: M-phase inducer phosphatase 2 (Homo sapiens) (UniProt P30305)
Sequence (P30305 whole entry, looked up, the tested form may be a part): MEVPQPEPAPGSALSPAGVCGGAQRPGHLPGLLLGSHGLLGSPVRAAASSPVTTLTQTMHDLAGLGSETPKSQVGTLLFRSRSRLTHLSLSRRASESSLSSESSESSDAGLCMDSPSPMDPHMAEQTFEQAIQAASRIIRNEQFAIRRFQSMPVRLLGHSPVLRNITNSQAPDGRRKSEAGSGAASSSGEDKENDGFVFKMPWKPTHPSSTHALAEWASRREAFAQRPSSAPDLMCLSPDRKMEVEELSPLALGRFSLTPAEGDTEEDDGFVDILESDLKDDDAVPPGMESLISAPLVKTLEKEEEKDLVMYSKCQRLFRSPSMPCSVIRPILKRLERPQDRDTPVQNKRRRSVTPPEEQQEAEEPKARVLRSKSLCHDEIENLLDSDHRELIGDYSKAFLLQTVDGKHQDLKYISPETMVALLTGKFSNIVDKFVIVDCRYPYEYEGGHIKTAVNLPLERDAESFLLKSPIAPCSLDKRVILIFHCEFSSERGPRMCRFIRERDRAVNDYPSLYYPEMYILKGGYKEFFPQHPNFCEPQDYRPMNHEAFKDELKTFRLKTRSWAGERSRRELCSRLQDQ
Test: concentration-response of Cdc25B catalytic domain blockers – biochemical, fluorescence, IC50, dose response (AID 569)
Settings: recombinant Cdc25B phosphatase, fluorescence substrate
Activity calls are given as the source filed them. The rule behind the calls is not given here.
Your reply should match one of these outcome classes. active, inactive

Reference set (5 entries):
>  <compound>
O=C1CC(N2CCN(CCc3ccccn3)CC2)C(=O)N1c1ccc(Cl)cc1 (stereo unspecified)

>  <label>
inactive

$$$$
>  <compound>
Oc1ccc2ccccc2c1C=NC12CN3CCN(CN(C3)C1)C2

>  <label>
active

$$$$
>  <compound>
Cc1nc2c(C)cccn2c1/C(O)=C1\C(=O)C(=O)N(CCN(C)C)C1c1ccncc1 (stereo unspecified)

>  <label>
inactive

$$$$
>  <compound>
N#CC1=C(N)N2C(=C(C#N)C13CCCCC3)SC1CCCCC12O (stereo unspecified)

>  <label>
inactive

$$$$
>  <compound>
CCOc1cc(C2C(C#N)=C(N)Oc3n[nH]c(-c4ccccc4)c32)ccc1O (stereo unspecified)

>  <label>
inactive

$$$$

// switching to the query compound
# lookup: test call for COc1cccc(N2CCN(C3CC(=O)N(c4cccc(Cl)c4)C3=O)CC2)c1 (stereo unspecified)
inactive
